Recorded values, source ChEMBL document CHEMBL4513216.

This listing pairs compounds with measured INHIBITION.
- Tested on: Plasmodium falciparum
- experimental details: Screen against P. falciparum Asexual Blood Stage (ABS), at 5uM
- Assay type: functional, Dd2
- assay conditions: tested at 5 uM
The whole screen tested about 65,000 compounds, of which about 2,100 (3.2%) showed an effect of 50% or more. The median lay at about -52%. What follows is part of a selection rich in strong results, with near analogues and random picks from the rest.
Give just the number in %; leave the unit off.

>>> numeric_result("O=C1NCc2ccccc2CC12CCN(Cc1ccncc1Cl)C2 (stereo not drawn)")
-32
>>> numeric_result("CN1CCCC1CCn1ccnc1-c1nc2ccccc2[nH]1 (stereo not drawn)")
72.2
>>> numeric_result("COc1cccc2c(=O)n(C3CCCNC3)cnc12 (stereo not drawn)")
-35.5
>>> numeric_result("O=C(Nc1ccc(F)cc1)N1CCC(CO)(Nc2ccccc2)CC1")
-40.85
>>> numeric_result("CCNC(=O)c1cn(C(C)(C)C)c2ncccc12")
5.57

Req: Tell me measured INHIBITION for COCCN1CCN(c2ccc(C)nn2)Cc2ccc(C)nc21 please.
Resp: -54.8

Req: Tell me measured INHIBITION for O=C1N(CCc2ccccc2)CCCC1(O)CNCc1ccc(F)cc1 (stereo not drawn) please.
Resp: 78.1

Req: Tell me measured INHIBITION for COCCN1CCC2(COCc3c(C)nc(N(C)C)nc32)C1 (stereo not drawn) please.
Resp: -49.6

Req: Tell me measured INHIBITION for OC(CNCc1ccccc1C(F)(F)F)c1ccccc1 (stereo not drawn) please.
Resp: 82.4

Req: Tell me measured INHIBITION for CCCN1CCN(C(=O)Cc2cccnc2)[C@H]2CS(=O)(=O)C[C@H]21 please.
Resp: -103

Req: Tell me measured INHIBITION for Cc1nc(COC[C@H]2CC[C@H]3NCC[C@H]3O2)cs1 please.
Resp: -29.9

Req: Tell me measured INHIBITION for c1cc(CN2C[C@@H]3OCCN(CCN4CCCC4)[C@@H]3C2)ccn1 please.
Resp: -104

Req: Tell me measured INHIBITION for CN(C)c1ncc2c(n1)C1(CCN(CC3CC3)C1)COC2 (stereo not drawn) please.
Resp: -2.79

Req: Tell me measured INHIBITION for CC/C=C(/C)C(=O)NS(=O)(=O)c1ccc(C#N)c(C(F)(F)F)c1 please.
Resp: -159

Req: Tell me measured INHIBITION for O=C1N(CCCc2ccccc2)CCCC1(O)CNCC1CCCCC1 (stereo not drawn) please.
Resp: 72.4

====

- System: Plasmodium falciparum
- experimental details: Screen against P. falciparum Asexual Blood Stage (ABS), at 5uM
- Assay type: functional, Dd2
- assay conditions: tested at 5 uM
Screen size: about 65,000 compounds; about 2,100 (3.2%) showed an effect of 50% or more. The median lay at about -52%. Only a selection was taken, and strong results are over-represented in it overall.
This listing pairs compounds with measured INHIBITION.
# include the unit after the value

Some compounds with recorded INHIBITION:
>>> result("CCc1noc(C(C)N2CCNCC2)n1 (stereo not drawn)")
"-31.4%"
>>> result("O=C(NCCc1ccccc1)NCCN1CCC(c2cccs2)CC1")
"77.6%"
>>> result("Cc1c(CN2CCCC(C(=O)c3ccc(C(C)(C)C)cc3)C2)cnn1C (stereo not drawn)")
"57.9%"
>>> result("Cc1c(CC(=O)N2CCN(CC(F)(F)F)CC2)nnn1-c1ccccc1")
"-74%"
>>> result("Cc1cc(C)c2cc(CNCc3ccco3)c3nn(C)c(=O)n3c2c1")
"75.5%"

Req: Tell me measured INHIBITION for COCC1CC2(CCN(c3ccccn3)CC2)CN1C(C)C (stereo not drawn) please.
Resp: -41%

Req: Tell me measured INHIBITION for COc1ccc(CCNCc2ccco2)cc1OC please.
Resp: 5.79%

Req: Tell me measured INHIBITION for CCCn1ncc(CN2CCCC(C(=O)c3ccc(SC)cc3)C2)c1C (stereo not drawn) please.
Resp: 65.8%

Req: Tell me measured INHIBITION for Cc1cc(C)c2cc(CNC3CCCCC3)c3nn(C)c(=O)n3c2c1 please.
Resp: 79.7%

Req: Tell me measured INHIBITION for COC[C@@H]1CCC[C@]12CN(Cc1cccc(C)n1)CCO2 please.
Resp: -26.8%

Req: Tell me measured INHIBITION for COCC(=O)NC[C@H]1C[C@@H]2CCN1C[C@@H]2c1cc(-c2cccs2)nn1C please.
Resp: -43.2%

Req: Tell me measured INHIBITION for CCn1ncc(CN2CCCC(C(=O)c3ccc(Cl)cc3)C2)c1C (stereo not drawn) please.
Resp: 70.5%

Req: Tell me measured INHIBITION for COCC1CC2(CCN(Cc3cccc(C#N)c3)CC2)CN1C(C)C (stereo not drawn) please.
Resp: 73.2%

Req: Tell me measured INHIBITION for CCCc1nc(N2CCCC3(CCNC3)C2)c2cnn(C)c2n1 (stereo not drawn) please.
Resp: -53.5%

Req: Tell me measured INHIBITION for CC(=O)N1CCC2(CC1)NC(=O)[C@H]1CN(Cc3cccnc3)C[C@H]12 please.
Resp: -6.03%

Req: Tell me measured INHIBITION for O=C1CSC(c2cccnc2)c2c(n(C3CCOCC3)[nH]c2=O)N1 (stereo not drawn) please.
Resp: -140%

Req: Tell me measured INHIBITION for COCC1CC2(CCN(Cc3ccoc3)CC2)CN1C(C)C (stereo not drawn) please.
Resp: 71.6%

Req: Tell me measured INHIBITION for Cc1c(C2SCC(=O)Nc3c2cnn3C(C)(C)C)cnn1C (stereo not drawn) please.
Resp: -41.3%

Req: Tell me measured INHIBITION for Oc1ccc(N2CCN(Cc3ccc(F)cc3Br)CC2)cc1 please.
Resp: -85.8%

Req: Tell me measured INHIBITION for COCc1cn(C[C@H]2C[C@@H]3CCN2C[C@@H]3C(=O)N2CCOCC2)nn1 please.
Resp: -65.4%

Req: Tell me measured INHIBITION for N#Cc1cccc(CN2CCO[C@@H]3CNC[C@@H]32)c1 please.
Resp: -52.7%

Req: Tell me measured INHIBITION for CCCc1nc(N(C)CCN2CCCCCC2)c2cnn(C)c2n1 please.
Resp: 92.9%

Req: Tell me measured INHIBITION for O=C(c1ccncc1F)N1C[C@@H]2OCCN(CC3CC3)[C@@H]2C1 please.
Resp: -66.6%

====

- System: Plasmodium falciparum
- experimental details: Screen against P. falciparum Asexual Blood Stage (ABS), at 5uM
- Assay type: functional, Dd2
- assay conditions: tested at 5 uM
Out of some 65,000 compounds screened, about 2,100 (3.2%) showed an effect of 50% or more. The median lay at about -52%. This is one part of a sample in which strong results are shown more often than they occur.
# if value of INHIBITION reaches 80%, tag true (1); if it stays below, tag false (0)

>>> label_value("CNS(=O)(=O)c1cccc(C(C)NCc2ccccc2OC)c1 (configuration not stated)")
"true (1)"
>>> label_value("CN(Cc1ccon1)c1nc(-c2ccccn2)nc2c1CCNCC2")
"false (0)"
>>> label_value("COc1ccc(Cl)cc1CC(=O)N1CCN(CC(C)(C)O)CC1")
"false (0)"
>>> label_value("COc1cccc(CN2CCN3C(=O)NC[C@H]3C2)n1")
"false (0)"
>>> label_value("c1cnc(N2CCCC3(COCCN(CC4CC4)C3)C2)nc1 (configuration not stated)")
"false (0)"

Note: attention shifts to another entry.
Req: Would you say c1cncc(N2CCCC3(CCN(CCN4CCCC4)CC3)C2)c1 shows INHIBITION at minimum 80%?
Resp: true (1)

====

This listing pairs molecules with measured INHIBITION.
- Tested on: Plasmodium falciparum
- experimental details: Screen against P. falciparum Asexual Blood Stage (ABS), at 5uM
- Format: functional, Dd2
- assay conditions: tested at 5 uM
The whole screen tested about 65,000 compounds, of which about 2,100 (3.2%) showed an effect of 50% or more. The median lay at about -52%. What follows is part of a selection rich in strong results, with near analogues and random picks from the rest.
# include the unit after the value

Some molecules with recorded INHIBITION:
>>> result("Cc1nccn1CCN(C)c1nc(-c2ccc(Cl)cc2)nc2c1CNC2")
"70.5%"
>>> result("CC(C)(C)NC(=O)CNc1ccc(C#N)c(C(F)(F)F)c1")
"-31.3%"
>>> result("Clc1cccc(N[C@H]2CCCN[C@H]2Cc2ccccc2)c1")
"92.8%"
>>> result("CCN(CC)CCN(C)c1nc(-c2ccc(Cl)cc2)nc2c1CNC2")
"88.3%"
>>> result("COCCN1CC[C@@H]2CN(Cc3cccnc3OC)C[C@@H]2C1")
"-68%"

Req: Provide INHIBITION, recorded with Plasmodium falciparum, of CC(Cc1c(F)cccc1F)NC(=O)Nc1cnn(CC(N)=O)c1 (stereo unspecified)
Resp: -77.1%
